# Tested on: MS2 coat protein
# assay_text: apparent KD of MS2 coat protein; designed switch direction (-1 OFF switch, 1 ON switch): 1; higher = weaker reporter binding
# stated_conditions: input ligand: microRNA oligo, concentration not stated
metric_name: apparent KD of MS2 coat protein

entry_sequence	result
UGUUGUAUUACAGGAUAUCUAUUAGUGUUAUUUAGAGAAGGGUAUUCACAUGAGGAUCACCCAUGUAUAUACGAGGAAGUUGUG [JMF's solution 90] (Eterna round: R96, puzzle: Same State NG 1)	37.4 nM
UGGCUCAGACGAGGAUAUACGUGGUCACAUGAGGAUCACCCAUGUCUCGAGCUUCGGCUCGAGGCGUAGAAGGUGUCUGAGCCU [SSNG2/6-C3] (Eterna round: R96, puzzle: Same State NG 2)	363 nM

Next, consider the following sequence.
# lookup: apparent KD of MS2 coat protein of AUAGUUUCCGAAGGAUAUGAUGAGGAUCACCCAUCAGAAGGUUGGCUAUUGGGCGGACAUGAGGAUCACCCAUGUCUUUCGGUU (Eterna round: R96, puzzle: Same State NG 1)
76.8 nM
